The measurements presented in this section are drawn from paper PMC9482650.

Target: T1, DFNB31_3, Q9P202
T1 sequence (Q9P202 811-907, limits assumed, looked up): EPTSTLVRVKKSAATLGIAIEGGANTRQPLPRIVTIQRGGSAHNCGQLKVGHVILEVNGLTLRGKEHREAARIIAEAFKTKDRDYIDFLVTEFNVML
Experiment: holdup assay
Set-up: key: below the threshold = too weak to quantify, mostly under pKd 3.1 to 4
Settings: plain residues with an end cap or a label only (N-terminal biotin on a linker: ahx)
Assay metric: pKd

// known answers, use as guide
# Binder, Experimental value
data = [
    ("VNENQKEYFF [CNTNAP4, Q9C0A0]", "below the threshold"),
    ("YNSFLSVTTV [PDZRN3, Q9UPQ7]", 3.51),
    ("HSATSVHTSV [MTMR1, Q13613]", "below the threshold"),
    ("PKMKLNETSF [SHKBP1, Q8TBC3]", "below the threshold"),
    ("KDECVIATEV [DLL1, O00548]", "below the threshold"),
]

query: I am curious: what pKd value has been reported for SKKNELFSNL [NHERF1, O14745] ?
result: below the threshold
